Reference source: ChEMBL document CHEMBL1201862

# Tested on: OVCAR-5
# assay overview: NCI tumour cell line growth inhibition, 48 h
Calls of active or inactive are those of the source. Rule as the data show it: active = GI50 up to about 1.1 µM and inactive = higher.
Outcomes: class 1 for active, class 0 for inactive

[
  {
    "compound": "COCc1cc2c(cc1/C=C/[N+](=O)[O-])OCO2",
    "class assignment": "class 0"
  },
  {
    "compound": "CNc1ncnc2c1cnn2CCCCO",
    "class assignment": "class 0"
  },
  {
    "compound": "C=C=C(C(=O)OC)[S+]([O-])c1ccc([N+](=O)[O-])cc1[N+](=O)[O-] (configuration not stated)",
    "class assignment": "class 0"
  },
  {
    "compound": "Cc1cc(O)c(C(C)C)cc1/N=C/c1ccccc1O",
    "class assignment": "class 0"
  },
  {
    "compound": "CC#CS(=O)(=O)c1ccccc1",
    "class assignment": "class 0"
  },
  {
    "compound": "CCCCC1Cc2cc(O)ccc2-c2n1c1cc(O)ccc1[n+]2C.CCCCC1Cc2cc(O)ccc2-c2n1c1ccc(O)cc1[n+]2C (configuration not stated)",
    "class assignment": "class 0"
  },
  {
    "compound": "Cc1cc(C23OC4COC(C)(C)OC4C2OC(C)(C)O3)nc2ccccc12 (configuration not stated)",
    "class assignment": "class 0"
  },
  {
    "compound": "Cn1c2ccccc2c(=O)c2cccc(C(=O)NC(CCC(N)=O)C(=O)O)c21 (configuration not stated)",
    "class assignment": "class 0"
  },
  {
    "compound": "Cc1cc2c(cc1-c1cc3c(cc1C)C(C(C)C)=C(O)C(=O)/C3=C\\Nc1c(C)n(C)n(-c3ccccc3)c1=O)/C(=C/Nc1c(C)n(C)n(-c3ccccc3)c1=O)C(=O)C(O)=C2C(C)C",
    "class assignment": "class 0"
  },
  {
    "compound": "CC(C)(C)[Si](C)(C)OCC1OC(n2cnc3c(N)ncnc32)CC1OS(C)(=O)=O (configuration not stated)",
    "class assignment": "class 0"
  },
  {
    "compound": "CC1CC/C(=C\\c2ccc(Cl)cc2)C2OC(N)=C(C#N)C(c3ccc(Cl)cc3)=C12 (configuration not stated)",
    "class assignment": "class 0"
  },
  {
    "compound": "CN(C)/C=N\\c1nncc2[nH]nnc12",
    "class assignment": "class 0"
  },
  {
    "compound": "CCOC(=O)Cn1c(=O)c2cc(C)cc3c(Cl)nc4c(OC)c(OC)cc1c4c32",
    "class assignment": "class 0"
  },
  {
    "compound": "O=C1c2ccccc2CC12Cc1ccc3c(c1C2)CCC3 (configuration not stated)",
    "class assignment": "class 0"
  },
  {
    "compound": "O=C(O/N=C1/CCCC/C1=C\\c1ccccc1)c1ccc(Cl)c(Cl)c1",
    "class assignment": "class 0"
  },
  {
    "compound": "CN1CCC23c4c5ccc(O)c4OC2C(=NN=C2CCC4(O)C6Cc7ccc(O)c8c7C4(CCN6C)C2O8)CCC3(O)C1C5 (configuration not stated)",
    "class assignment": "class 0"
  },
  {
    "compound": "CCn1c2ccccc2c2cc(NC(=O)c3c(C)nc(O)nc3NCCNCCO)ccc21",
    "class assignment": "class 0"
  },
  {
    "compound": "C[C@@H]1[C@@H]2[C@@H](C=C3C4CCC5Cc6nc7c(nc6C[C@@]5(C)C4C[C@H](O)[C@]32CO)CC2CCC3C4=C[C@H]5O[C@@]6(OC(C)(CO)C[C@@H]6O)[C@H](C)[C@@]5(O)[C@]4(C)[C@@H](O)CC3[C@]2(C)C7)O[C@]12CCC(C)(C)O2 (some centres not stated)",
    "class assignment": "class 1"
  },
  {
    "compound": "N=C(N)NS(=O)(=O)c1ccc(N/N=C2/CCOC2=O)cc1",
    "class assignment": "class 0"
  },
  {
    "compound": "CC(C)N1CC2CN(Cc3ccccc3)CC(C1)C2=O",
    "class assignment": "class 0"
  },
  {
    "compound": "Nc1nc(O)c2nc3c(nc2n1)C(=O)N(c1ccc(C(=O)O)cc1)C3",
    "class assignment": "class 0"
  },
  {
    "compound": "CCc1nc(N)nc(N)c1-c1ccc([N+](=O)[O-])c(NCc2ccccc2)c1",
    "class assignment": "class 0"
  },
  {
    "compound": "NNC(=O)CCc1ccc2ccc3ccccc3c2c1",
    "class assignment": "class 0"
  },
  {
    "compound": "S=c1cc(-c2ccc3c(c2)OCO3)s[nH]1",
    "class assignment": "class 0"
  },
  {
    "compound": "O=c1oc(=O)c2oc3ccccc3oc1=2",
    "class assignment": "class 0"
  },
  {
    "compound": "CN(C)NC1=C([N+](=O)[O-])C=NN(c2ccccc2)C1",
    "class assignment": "class 0"
  },
  {
    "compound": "O=c1cc(NNc2ccc(F)cc2)[nH]c(=O)[nH]1",
    "class assignment": "class 0"
  },
  {
    "compound": "O=C(OC(/C=C/c1ccccc1)P1(=O)N(Cc2ccccc2)[C@@H]2CCCC[C@H]2N1Cc1ccccc1)c1ccccc1 (some centres not stated)",
    "class assignment": "class 0"
  },
  {
    "compound": "O=C(c1nc2ccc(Cl)cc2[nH]c1=O)C(O)c1ccco1 (configuration not stated)",
    "class assignment": "class 0"
  },
  {
    "compound": "C=CCC(O[Si](C)(C)C(C)(C)C)c1cc(O[Si](C)(C)C(C)(C)C)ccc1OC (configuration not stated)",
    "class assignment": "class 0"
  },
  {
    "compound": "N#CC(C#N)/N=N/c1ccc(-c2nc3ccccc3[nH]2)cc1",
    "class assignment": "class 0"
  },
  {
    "compound": "CC(C)c1c(P(=O)(c2ccccc2)c2ccccc2)n(C)c2ccccc12",
    "class assignment": "class 0"
  },
  {
    "compound": "Nc1ccc(Oc2ccc(C34CC5CC6C3CC3CC4C(C5)C6(c4ccc(Oc5ccc(N)cc5)cc4)C3)cc2)cc1",
    "class assignment": "class 0"
  },
  {
    "compound": "CC(=O)CCC(=O)CC(O)(C(F)(F)F)C(F)(F)F",
    "class assignment": "class 0"
  },
  {
    "compound": "CCOC(=O)c1ccc(NC(=O)Oc2ccc3c(C)cc(=O)oc3c2)cc1",
    "class assignment": "class 0"
  },
  {
    "compound": "O=C(NCCCN(CCCCN(CCCNC(=O)C(F)(F)F)Cc1ccccc1)Cc1ccccc1)C(F)(F)F",
    "class assignment": "class 0"
  },
  {
    "compound": "C/C(=C\\COP(=O)(O)OP(=O)(O)O)CCCCCCOCc1ccccc1",
    "class assignment": "class 0"
  }
]

* * *

Listed next: entries and their corresponding GI50.
# Tested on: HOP-92
# assay overview: NCI tumour cell line growth inhibition, 48 h
Active and inactive are the calls of the source. Cut-off read from the data, not from the text of the source: active = GI50 up to about 1.1 µM and inactive = higher.

[
  {
    "compound": "O=c1cc(-c2ccccc2)oc2ccc(Cl)cc12",
    "system name": "HOP-92",
    "GI50": "22.8 µM (inactive)"
  },
  {
    "compound": "Sc1nnc(NNc2ccccc2)n1Nc1ccccc1",
    "system name": "HOP-92",
    "GI50": "25.3 µM (inactive)"
  },
  {
    "compound": "COc1nc2cccc(C(O)c3ccccc3)c2nc1-c1ccccc1 (stereo not drawn)",
    "system name": "HOP-92",
    "GI50": "6.92 µM (inactive)"
  },
  {
    "compound": "CNC(=O)OCc1nc(SC2CCCCO2)n(C)c1COC(=O)NC (stereo not drawn)",
    "system name": "HOP-92",
    "GI50": "> 100 µM (inactive)"
  },
  {
    "compound": "CO[C@H]1C[C@@H]2CC[C@@H](C)[C@@](O)(O2)C(=O)C(=O)N2CCCC[C@H]2C(=O)O[C@H]([C@H](C)C[C@@H]2CC[C@@H](OC(=O)C(C)(CO)CO)[C@H](OC)C2)CC(=O)[C@H](C)/C=C(\\C)[C@@H](O)[C@@H](OC)C(=O)[C@H](C)C[C@H](C)/C=C/C=C/C=C/1C",
    "system name": "HOP-92",
    "GI50": "0.00254 µM (active)"
  },
  {
    "compound": "C=C1C(=O)O[C@H]2[C@H]1[C@@H](OC(=O)C=C(C)C)CC1=C[C@@H](C[C@@]3(C)O[C@@H]23)OC1=O",
    "system name": "HOP-92",
    "GI50": "2.1 µM (inactive)"
  },
  {
    "compound": "CO[P@]1(=O)O[C@@H](c2ccccc2)[C@H](O)[C@@]1(O)c1ccccc1",
    "system name": "HOP-92",
    "GI50": "> 100 µM (inactive)"
  },
  {
    "compound": "CCCCCC(C/C=N/N(C)C)C(O)(C(F)(F)F)C(F)(F)F (stereo not drawn)",
    "system name": "HOP-92",
    "GI50": "33 µM (inactive)"
  }
]
